- Target Or System: T1, Formyl-Peptide Receptor 1 (UniProt P21462 1-350, limits assumed)
- T1 sequence (looked up): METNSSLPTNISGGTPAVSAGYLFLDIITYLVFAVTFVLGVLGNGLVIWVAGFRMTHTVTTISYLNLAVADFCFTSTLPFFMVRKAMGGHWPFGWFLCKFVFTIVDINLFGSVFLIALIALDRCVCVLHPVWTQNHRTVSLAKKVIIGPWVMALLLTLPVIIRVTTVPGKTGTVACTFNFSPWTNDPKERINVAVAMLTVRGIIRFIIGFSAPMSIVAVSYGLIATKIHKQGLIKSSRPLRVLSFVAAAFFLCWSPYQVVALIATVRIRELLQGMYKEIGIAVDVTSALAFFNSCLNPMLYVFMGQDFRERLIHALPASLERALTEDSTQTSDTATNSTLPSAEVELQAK
- Assay Details: cell-based or functional assay
Bridges are numbered along the chain shown (N, C = ends). [ ]: non-standard residue; d: D form.
Recorded β-Arrestin IC50, one value per entry.
Reported Property: β-Arrestin IC50 (nM)

binder="cyclo(YHACWG[dP]WTICYQK[dK]P) (disulfide 4-11; SMILES CC[C@H](C)[C@@H]1NC(=O)[C@H]([C@@H](C)O)NC(=O)[C@H](Cc2c[nH]c3ccccc23)NC(=O)[C@H]2CCCN2C(=O)CNC(=O)[C@H](Cc2c[nH]c3ccccc23)NC(=O)[C@@H]2CSSC[C@H](NC1=O)C(=O)N[C@@H](Cc1ccc(O)cc1)C(=O)N[C@@H](CCC(N)=O)C(=O)N[C@@H](CCCCN)C(=O)N[C@H](CCCCN)C(=O)N1CCC[C@H]1C(=O)N[C@@H](Cc1ccc(O)cc1)C(=O)N[C@@H](Cc1c[nH]cn1)C(=O)N[C@@H](C)C(=O)N2) [cyclo(-Tyr-His-Ala-Cys-Trp-Gly-^DPro-Trp-Thr-Ile-Cys-Tyr-Gln-Lys-^DLys-Pro-)]" unit_abbrev=nM number=195
binder="cyclo(YHWCWG[dP]WTICYQK[dP]P) (disulfide 4-11; SMILES CC[C@H](C)[C@@H]1NC(=O)[C@H]([C@@H](C)O)NC(=O)[C@H](Cc2c[nH]c3ccccc23)NC(=O)[C@H]2CCCN2C(=O)CNC(=O)[C@H](Cc2c[nH]c3ccccc23)NC(=O)[C@@H]2CSSC[C@H](NC1=O)C(=O)N[C@@H](Cc1ccc(O)cc1)C(=O)N[C@@H](CCC(N)=O)C(=O)N[C@@H](CCCCN)C(=O)N1CCC[C@@H]1C(=O)N1CCC[C@H]1C(=O)N[C@@H](Cc1ccc(O)cc1)C(=O)N[C@@H](Cc1c[nH]cn1)C(=O)N[C@@H](Cc1c[nH]c3ccccc13)C(=O)N2) [cyclo(-Tyr-His-Trp-Cys-Trp-Gly-^DPro-Trp-Thr-Ile-Cys-Tyr-Gln-Lys-^DPro-Pro-)]" unit_abbrev=nM number=89
